# System: Leishmania donovani
# test-description: Antileishmanial activity against Leishmania donovani MHOM/SD/001S-2D promastigotes after 72 hrs by MTT assay
# Type: functional, organism-based
Square brackets hold non-standard residues; d marks the D form. Peptide text beside a SMILES is read from it. Lys(Me3) = C[N+](C)(C)CCCC[C@H](N)C(=O)O
property-name: LC50 (nM)
The reply should contain only the number, in nM.

Task: With Leishmania donovani as the test system, provide measured LC50 for this molecule: CC[C@H](C)[C@H](NC(=O)[C@H](CCCC[N+](C)(C)C)NC(=O)[C@H](CCCCN)NC(=O)[C@H](Cc1ccccc1)NC(=O)[C@H](CC(C)C)NC(=O)[C@H](CCCCN)NC(=O)[C@H](Cc1c[nH]c2ccccc12)NC(=O)[C@@H](N)CCCCN)C(=O)NCC(=O)N[C@@H](C)C(=O)N[C@H](C(=O)N[C@@H](CC(C)C)C(=O)N[C@@H](CCCCN)C(=O)N[C@H](C(=O)N[C@@H](CC(C)C)C(N)=O)C(C)C)C(C)C.[Cl-] (H-KWKLFK[Lys(Me3)]IGAVLKVL-NH2)
Result: 2300

Task: With Leishmania donovani as the test system, provide measured LC50 for this molecule: CC[C@H](C)[C@H](NC(=O)[C@H](CCCCN)NC(=O)[C@H](CCCC[N+](C)(C)C)NC(=O)[C@H](Cc1ccccc1)NC(=O)[C@H](CC(C)C)NC(=O)[C@H](CCCCN)NC(=O)[C@H](Cc1c[nH]c2ccccc12)NC(=O)[C@@H](N)CCCCN)C(=O)NCC(=O)N[C@@H](C)C(=O)N[C@H](C(=O)N[C@@H](CC(C)C)C(=O)N[C@@H](CCCCN)C(=O)N[C@H](C(=O)N[C@@H](CC(C)C)C(N)=O)C(C)C)C(C)C.[Cl-] (H-KWKLF[Lys(Me3)]KIGAVLKVL-NH2)
Result: 1700
